Biological target: 人PD-L1 expressed on cells (表达PD-L1的CHO细胞) (human) (UniProt Q9NZQ7)
Assay: cell-based or functional assay
parameter: IL-2分泌 (混合淋巴细胞反应) EC50

The measured IL-2分泌 (混合淋巴细胞反应) EC50 associated with 53C1F3D4 (antibody, V domains shown, Mouse hybridoma clone; Made recombinantly as variable region + constant region in HEK293-6E) VH: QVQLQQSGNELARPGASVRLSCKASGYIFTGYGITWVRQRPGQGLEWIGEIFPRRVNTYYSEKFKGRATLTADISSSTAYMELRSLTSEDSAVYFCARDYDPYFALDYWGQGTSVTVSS VL: DIVMTQSHKFMSTSVGDRVSITCKASQDVSTAVDWYQQKPGQSPKLLIYSASYRYTGVPDRFTGSGSGTAFTFTISGEQAEDLAVYYCQQHYSIPFTFGGGTKLEIK reads 0.0947 µg/mL
